assay: Human HepG2 cell viability assay in 384 well format
Format: toxicity, cell-based
Parameters: dose 125 nL, time 70.5 hour; concentration not given beside the values
condition-parameters: HepG2 cells, read-out: Inhibition
quantity: cytotoxicity at 70.5 h
Please append the unit to your numeric answer.

Name the recorded cytotoxicity at 70.5 h for CC(C)CC(=O)NC1CC2(CCN(CCF)CC2)Oc2ccccc21 (configuration not stated) .
-6.46%

New cases:
Quick check: cytotoxicity at 70.5 h of CCN(CC)C(=O)CNS(=O)(=O)c1cc(Br)ccc1F ?
-5.2%

Tell me the measured cytotoxicity at 70.5 h of CCSc1cc(C(=O)NCCc2nnc(-c3ccco3)[nH]2)ccn1 , please.
20.1%

Would you mind telling me what cytotoxicity at 70.5 h value was observed for O=C(Cc1ccccn1)N1CCN(C(=O)CC2CCCC2)CC1 ?
-1.56%

Form field: reported cytotoxicity at 70.5 h of O=C(c1ccn(-c2cccc(Cl)c2)n1)N1CCN(CCO)CC1
0.676%

So what does the record say about cytotoxicity at 70.5 h for C[S+]([O-])c1nncn1CC(=O)c1ccc2c(c1)CCC2 (configuration not stated) ?
8.46%

Form field: reported cytotoxicity at 70.5 h of CC(C)Oc1ccc(CN2CCCC(N3CCCC3)C2)cc1CO (configuration not stated)
2.77%

May I ask what cytotoxicity at 70.5 h has been recorded for COc1cc(CN(C)Cc2ccncc2)c(SC)cc1OC ?
-10.7%

What does the data say about its cytotoxicity at 70.5 h? Entry: C/C=C(/C)C(=O)NS(=O)(=O)c1ccc(C(F)(F)F)cc1
0.976%

Given the entry CC(=O)N1CCCC1c1nccnc1Nc1ncccn1 (configuration not stated) , report its measured cytotoxicity at 70.5 h.
15.9%

Which value of cytotoxicity at 70.5 h has been reported for COC(=O)c1cc(CN2CCC(c3noc(C)n3)CC2)c(C)s1 in the records?
2.05%

cytotoxicity at 70.5 h for Cc1cc(CN(C)C(=O)Nc2cnc3c(c2)c(C)nn3C)no1 ?
-8.11%

----------
cytotoxicity at 70.5 h listing for selected compounds.
assay: Human HepG2 cell viability assay in 384 well format
Format: toxicity, cell-based
Parameters: dose 125 nL, time 70.5 hour; concentration not given beside the values
condition-parameters: HepG2 cells, read-out: Inhibition
# unit: % | format: bare number

For the compound shown here, O=C1CC2(CCNCC2)C(=O)N1Cc1ccc(F)cc1 , give the reported cytotoxicity at 70.5 h.
29.9

cytotoxicity at 70.5 h lookup needed for Cc1ccsc1C(=O)NCc1ccnc(N2CCN(C)CC2)c1 , thanks.
-8.63

Using the record for CNC(=O)c1cccc(NCCOc2ccc(CC#N)cc2)c1C , report its cytotoxicity at 70.5 h.
-1.82

# lookup: cytotoxicity at 70.5 h of CC(C)N1CCCC1c1cc(CO)[nH]n1 (configuration not stated)
-4.38

What value of cytotoxicity at 70.5 h has been recorded for this entry: c1ccc(CO[C@@H]2CN(Cc3cccnc3)[C@@H]3COC[C@@H]32)nc1
5.82

For COC(C)(C)C(=O)N[C@H]1CN(c2nccnc2N(C)C)C[C@@H]1C(C)C , what is its reported cytotoxicity at 70.5 h?
-5.98

Data request, read-out cytotoxicity at 70.5 h, for Cc1nc2cc(O)nn2c(C)c1CCC(=O)N(C)CCC(C)C
-7.92

Recorded cytotoxicity at 70.5 h for NC(=O)c1cccc2nc([C@H]3CCN(Cc4ccccc4F)C3)[nH]c12 , please?
-3.45

Any idea what cytotoxicity at 70.5 h was measured for CN1CCC(N(C)C(=O)c2cnn(-c3ccccc3Br)c2N)CC1 ?
0.0189

Entry Cc1ncsc1CN(C)C(=O)CC1CCOc2ccccc21 (configuration not stated) has what cytotoxicity at 70.5 h?
22.4

What measured cytotoxicity at 70.5 h goes with CN(Cc1ccccc1F)C(C(N)=O)c1ccccc1 (configuration not stated) ?
5.98

What cytotoxicity at 70.5 h value was documented for this compound, CCCOC1CCCN(c2nc(CC)nc3c2cnn3C)C1 (configuration not stated) ?
-10.7
